run.description: amyloid nucleation score (Sup35N fusion, yeast selection) (log enrichment); library NNK2; higher = more nucleation; inactive = no reads after selection;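 also: zero at mode of non-aggregating sequences after 7 days selection at 30°C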
Please enter Condition met where amyloid nucleation score is greater than or equal to 3, and Condition not met where it is lower.

INSERT INTO measurements (substance, class_label) VALUES
  ('CVLVFIVNKTYA', 'Condition met'),
  ('HKCGTPFAIHIYRSKQLPGV', 'Condition not met'),
  ('SYWSLRLFCFQLCLDHYRNG', 'Condition not met'),
  ('LYNEMVRSLVGAICRSRQGY', 'Condition not met'),
  ('HPYYDQ', 'Condition not met'),
  ('GSMITCFVSDTLYKTVMVKL', 'Condition not met'),
  ('SKGYCWNVICSRVSFTTYAL', 'Condition met'),
  ('WVDIPFW', 'Condition not met'),
  ('QVGRSSQCEDTVVFIRVRLW', 'Condition met'),
  ('LTRRVGIFFHFG', 'Condition met'),
  ('GDSFLWTHS', 'Condition not met'),
  ('GGGAAPNPTDYKSILLLC', 'Condition not met');

----------
run.description: amyloid nucleation score (Sup35N fusion, yeast selection) (log enrichment); library NNK1; higher = more nucleation; inactive = no reads after selection
observation.type: amyloid nucleation score

INSERT INTO results (sequence_string, observation_type, measurement) VALUES
  ('KFLRGYSCNVRSRPTRDRSV', 'amyloid nucleation score', 'inactive'),
  ('YSHYNTIGLYILSKVSSMAV', 'amyloid nucleation score', 'inactive'),
  ('MCYVRMTFGTRDCHERVSLS', 'amyloid nucleation score', 'inactive');

----------
run.description: amyloid nucleation score (Sup35N fusion, yeast selection) (log enrichment); library NNK3; higher = more nucleation; inactive = no reads after selection
observation.type: amyloid nucleation score

INSERT INTO results (substance, observation_type, measurement) VALUES
  ('FLSEIGADTTKSYWDTIPRF', 'amyloid nucleation score', -1.2),
  ('WCDDFWLYVVLGYGLCFVLC', 'amyloid nucleation score', 'inactive'),
  ('SFRFWSFYTCGEYKWDGTKG', 'amyloid nucleation score', 'inactive'),
  ('RCVLRW', 'amyloid nucleation score', 1.34),
  ('KYEMTIPSSVLRALSNKHWL', 'amyloid nucleation score', -0.539),
  ('NTIVLILHYFYNSMLASSVI', 'amyloid nucleation score', 'inactive'),
  ('GCREICFNLCFKRSLTCALL', 'amyloid nucleation score', 'inactive'),
  ('LVSVGSDWDCLHFISGKFPG', 'amyloid nucleation score', 'inactive'),
  ('VGRHAYRC', 'amyloid nucleation score', 'inactive'),
  ('VCVRYFGDIFYVLYTFVMRA', 'amyloid nucleation score', 0.051),
  ('SFHTHRGYNG', 'amyloid nucleation score', 'inactive'),
  ('FLCWIYDECKGVRCVRLGAI', 'amyloid nucleation score', 'inactive'),
  ('SILLIFCLSKTRFSVMSFLP', 'amyloid nucleation score', 'inactive'),
  ('INIYSKELSNDGFSTLHYFM', 'amyloid nucleation score', 'inactive'),
  ('EYQLYCVYHLYANLDTVVRT', 'amyloid nucleation score', 'inactive'),
  ('KVRRGQLKIRS', 'amyloid nucleation score', 'inactive'),
  ('ECLKVRW', 'amyloid nucleation score', 'inactive'),
  ('CDVPAKYLGKICDSYALSIF', 'amyloid nucleation score', 'inactive'),
  ('ISGTFACQNSTFFSGYREAI', 'amyloid nucleation score', 'inactive'),
  ('GSSGENFVNYSKVTKSDLLY', 'amyloid nucleation score', 'inactive'),
  ('RLLLGTIYSFLKLHGDFNGR', 'amyloid nucleation score', 'inactive'),
  ('AEWGFVGGIYWYLRKVPRSH', 'amyloid nucleation score', 'inactive'),
  ('AANPFFTIYHLVRSYNVCRW', 'amyloid nucleation score', 'inactive'),
  ('KVSDKPHHKRGVGLDLMMMD', 'amyloid nucleation score', 'inactive'),
  ('DSLKSKFSKVLGPLNRACFY', 'amyloid nucleation score', 'inactive'),
  ('EKSCCCSVKI', 'amyloid nucleation score', 'inactive'),
  ('AFIRFTVFNIGVKKYSCL', 'amyloid nucleation score', 1.55),
  ('SFNNACVFYMNSWLRWRI', 'amyloid nucleation score', 1.96),
  ('GRGSKLVCVR', 'amyloid nucleation score', 2.63);

----------
run.description: amyloid nucleation score (Sup35N fusion, yeast selection) (log enrichment); library NNK2; higher = more nucleation; inactive = no reads after selection
observation.type: amyloid nucleation score

INSERT INTO results (substance, measurement) VALUES
  ('SWDHDYCGRWWCSNARGKIN', 4.3),
  ('YRWNYWFVVMMRPSSEDYLR', 4.95),
  ('VPVFFGPFQYT', -0.419),
  ('GVASMSRRARSHKMGGWMGR', 1.05),
  ('STWHLFWSP', 0.654),
  ('QFASISICYKSSIPNDCNDV', 1.12),
  ('SALCNDVVRPMMVFSENCAK', 0.225),
  ('YSIYEYG', 1.41),
  ('DMWMRVILSDNGNQEVPK', -0.293);

----------
run.description: amyloid nucleation score (Sup35N fusion, yeast selection) (log enrichment); library NNK3; higher = more nucleation; inactive = no reads after selection
observation.type: amyloid nucleation score

INSERT INTO assay_data (sequence_string, observation_type, measurement) VALUES
  ('TGSFIIRISSSRTMLW', 'amyloid nucleation score', 'inactive'),
  ('CDFALCSRWQVVYVKKQGQW', 'amyloid nucleation score', 2.1),
  ('FSNVRDFGFGKDY', 'amyloid nucleation score', 'inactive');

----------
Property: amyloid nucleation score; scope: individual substances
run.description: amyloid nucleation score (Sup35N fusion, yeast selection) (log enrichment); library NNK2; higher = more nucleation; inactive = no reads after selection
observation.type: amyloid nucleation score

INSERT INTO measurements (substance, measurement) VALUES
  ('FAAHCFDFMIHVPMGPAENK', 3.69),
  ('ELVRDASECRYIIVCLNSVA', -0.047),
  ('YDPVAVF', -0.945),
  ('FGTKHFVICSL', -0.989),
  ('TVPTMVW', -0.124),
  ('DSGEPWILMFLDGYLSAMRL', -0.513),
  ('YYGNFHLMSWVWSIGPCSIY', 4.88),
  ('KFGSWDHSACYSRWYSKSFV', -0.012),
  ('CAYGLFVNVFSVDADLRYKY', 7.54),
  ('ILWDTIREVHVHADMDMAPN', -0.782),
  ('VRNSCSTLLYASVESVFWI', 3.28),
  ('TLPRSII', -0.113),
  ('SVQSSWLNLLAVYIVFCCQR', -0.833),
  ('RCAMRVSARMSRSTGISRLR', 1.64),
  ('HGYSNNTSWAYI', 0.436),
  ('RSPMWLAGLMNIYSP', 2.87),
  ('VKNCDWGIYIILSGFMRVTR', -1.27),
  ('SVESIYLVVDVMMLGELCCA', 4.85),
  ('VNQLYWILCAYMVLCVGRDA', 4.54),
  ('DLVHFLRNRWCGIR', -0.73),
  ('NRILWSPNEKLLKHVTQVTL', -0.795),
  ('TLYWNKSQRYGLLWFKFVSL', -0.277),
  ('ALTFTGV', 0.286);

----------
Property: amyloid nucleation score; scope: individual sequences
run.description: amyloid nucleation score (Sup35N fusion, yeast selection) (log enrichment); library NNK3; higher = more nucleation; inactive = no reads after selection
observation.type: amyloid nucleation score

INSERT INTO measurements (sequence_string, measurement) VALUES
  ('ILVVGALDLLCGVLTEYSCQ', 1.1),
  ('PWSWWTHYTSGCQYQFGYRG', -0.749);

----------
run.description: amyloid nucleation score (Sup35N fusion, yeast selection) (log enrichment); library NNK1; higher = more nucleation; inactive = no reads after selection
Property: amyloid nucleation score; scope: individual sequences
observation.type: amyloid nucleation score

INSERT INTO assay_data (sequence_string, measurement) VALUES
  ('EDNWHLRVQ', 0.088),
  ('GISGLVLSYGADSGPGTWGK', -0.63),
  ('NYNVTNNALADR', -0.368),
  ('RQVPPISGAISWGDSPSNGG', 0.18),
  ('TDSEVAFVNGTNSQRWFFGW', 1.07),
  ('DFSYSNPDFVFLTQYIAYEK', 4.43),
  ('NICDFLIYVYYLRSVCDI', -0.358),
  ('YACESGMEIMHYRHMSGGVV', 0.732),
  ('GCGRGMLLGFAPWITCPWMS', 0.971);

----------
run.description: amyloid nucleation score (Sup35N fusion, yeast selection) (log enrichment); library NNK2; higher = more nucleation; inactive = no reads after selection
Property: amyloid nucleation score; scope: individual sequences
observation.type: amyloid nucleation score

INSERT INTO results (sequence_string, observation_type, measurement) VALUES
  ('GFSRRGELHVSVYHIRDNVR', 'amyloid nucleation score', -1.11),
  ('GECRCYHQTCGFHCNLGFGY', 'amyloid nucleation score', 4.7),
  ('YITFSDRLWTLLLWCRILWL', 'amyloid nucleation score', -0.002),
  ('KTNSIPYSMVS', 'amyloid nucleation score', -0.113),
  ('VLKVRHVFEGGTEVILQSNR', 'amyloid nucleation score', 2.22),
  ('VLIRSSDNWWAEGSGVLGSC', 'amyloid nucleation score', 0.201),
  ('RLNRSMSSHHDRRHLEWSLS', 'amyloid nucleation score', 0.235),
  ('GWESGALWVANFLSVRQA', 'amyloid nucleation score', 0.19);

src = the supplement of paper PMC12042874
